# System: P-gp
# Assay summary: in vitro
# Settings: human, LS-180 cells, probe rhodamine 123 (1 μg/mL), with verapamil 100 μM
Property name: EC50 at 48 h (µM)
Number in µM, nothing else.

Lab note: measured EC50 at 48 h of CC(C)=CCC/C(C)=C/CC/C(C)=C/CC[C@]1(C)CCc2cc(O)c(C)c(C)c2O1 was 5.9

====

# Tested on: P-gp
# Assay summary: in vitro
# Settings: human
Can you tell me EC50 at 48 h for the items I'm about to list?
Number in µM, nothing else.

Response field EC50 at 48 h (P-gp) for item C[C@H]1[C@H](C)CC[C@]2(C(=O)O)CC[C@]3(C)C(=CC[C@@H]4[C@@]5(C)C[C@@H](O)[C@H](O)[C@@](C)(CO)[C@@H]5CC[C@]43C)[C@H]12 : 11.3

Response field EC50 at 48 h (P-gp) for item CO[C@H]1/C=C/O[C@@]2(C)Oc3c(C)c(O)c4c(O)c(c(/C=N/N5CCN(C)CC5)c(O)c4c3C2=O)NC(=O)/C(C)=C\C=C\[C@H](C)[C@H](O)[C@@H](C)[C@@H](O)[C@@H](C)[C@H](OC(C)=O)[C@@H]1C [rifampicin, Rifampicin, reference compound] : 26.8

Response field EC50 at 48 h (P-gp) for item C/C=C(/C=O)[C@@H](CC=O)CC(=O)OCCc1ccc(O)cc1 [oleocanthal, (-)-Oleocanthal] : 14
